Values from patent US9962383B2

# Tested on: human cell lines (U-937, HeLa, A549, BT549, IMR90)
# TEST_METHOD_NOTES: Ability to induce cell death in the panel of five human cell lines (Table 3)
# Format: cell-based
# MEASUREMENT_CONTEXT: 48-hour exposure, 1 nM to 10 μM, cell lines of Table 3
ASSAY_READOUT: activity (ability to induce cell death) in words

>  <COMPOUND>
CO[C@H]1NC(=O)c2ccc(Br)n2[C@@H]1Cc1c[nH]c(=O)n1C [(+)-39, (+)-O-methyl-pre-agelastatin A]

>  <RECORDED_MEASUREMENT>
None

$$$$
>  <COMPOUND>
COC1NC(=O)c2ccc(Br)n2C1Cc1c[nH]c(=O)[nH]1 (single isomer, unassigned; (+)) [(+)-53, (+)-O-methyl-pre-agelastatin D]

>  <RECORDED_MEASUREMENT>
None

$$$$
